Reference source: the supplement of paper PMC7877785

# run.description: self-splicing fitness, log relative to wild type (ln ratio); higher = more splicing; Tetrahymena group I intron in knt gene, E. coli kanamycin selection, DiMSum; sequences stand for … in CUCUCU…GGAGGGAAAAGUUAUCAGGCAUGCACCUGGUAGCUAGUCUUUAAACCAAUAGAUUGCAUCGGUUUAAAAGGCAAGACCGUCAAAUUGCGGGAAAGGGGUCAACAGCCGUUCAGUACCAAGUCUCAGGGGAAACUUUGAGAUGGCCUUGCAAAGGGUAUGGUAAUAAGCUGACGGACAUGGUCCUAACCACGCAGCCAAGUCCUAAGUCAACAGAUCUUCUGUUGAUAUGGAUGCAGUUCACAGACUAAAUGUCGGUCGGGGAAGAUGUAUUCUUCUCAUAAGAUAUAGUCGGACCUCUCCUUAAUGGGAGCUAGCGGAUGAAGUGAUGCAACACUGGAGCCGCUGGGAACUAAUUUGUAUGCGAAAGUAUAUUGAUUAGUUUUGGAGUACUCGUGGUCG;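 further: selection with 25 µg/mL kanamycin versus none on LB agar overnight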
# test.conditions: 30 °C
attribute.measured: self-splicing fitness (ln)
Answer with the value's number alone.

Problem: Would you mind telling me what self-splicing fitness (ln) value was observed for "CGAUAGCAAUAUUACGACGA" ?
Solution: -1.5

Problem: Would you mind telling me what self-splicing fitness (ln) value was observed for "AAAUAGCAAUAUUACGUCCA" ?
Solution: -0.829

Problem: Would you mind telling me what self-splicing fitness (ln) value was observed for "GUCUAGCAAUAUUACGACCU" ?
Solution: -2.33

Problem: Would you mind telling me what self-splicing fitness (ln) value was observed for "GUCGAGCAAUAUUACGCACG" ?
Solution: -1

Problem: Would you mind telling me what self-splicing fitness (ln) value was observed for "GAUUAGCAAUAUUACGCUUC" ?
Solution: -3.55

Problem: Would you mind telling me what self-splicing fitness (ln) value was observed for "GGGUAGCAAUAUUACGUGGG" ?
Solution: -4.13

Problem: Would you mind telling me what self-splicing fitness (ln) value was observed for "UUAAAGCAAUAUUACGCACC" ?
Solution: -0.965

Problem: Would you mind telling me what self-splicing fitness (ln) value was observed for "UACGAGCAAUAUUACGCAUU" ?
Solution: -3.48

Problem: Would you mind telling me what self-splicing fitness (ln) value was observed for "GCGUAGCAAUAUUACGCGUU" ?
Solution: -1.14

Problem: Would you mind telling me what self-splicing fitness (ln) value was observed for "CCUUAGCAAUAUUACGGAUC" ?
Solution: -3.45

Problem: Would you mind telling me what self-splicing fitness (ln) value was observed for "AUCAAGCAAUAUUACGUGAA" ?
Solution: -1.73

Problem: Would you mind telling me what self-splicing fitness (ln) value was observed for "GAUCAGCAAUAUUACGGACG" ?
Solution: -0.737

Problem: Would you mind telling me what self-splicing fitness (ln) value was observed for "GAAAAGCAAUAUUACGAUUU" ?
Solution: -0.346

Problem: Would you mind telling me what self-splicing fitness (ln) value was observed for "UUUUAGCAAUAUUACGGCAG" ?
Solution: -0.809

Problem: Would you mind telling me what self-splicing fitness (ln) value was observed for "GUCCAGCAAUAUUACGUGUC" ?
Solution: -0.424

Problem: Would you mind telling me what self-splicing fitness (ln) value was observed for "UACCAGCAAUAUUACGCGUA" ?
Solution: -1.9

Problem: Would you mind telling me what self-splicing fitness (ln) value was observed for "CUCUAGCAAUAUUACGAAAC" ?
Solution: -2.61

Problem: Would you mind telling me what self-splicing fitness (ln) value was observed for "GUGUAGCAAUAUUACGUGAC" ?
Solution: -1.35

Problem: Would you mind telling me what self-splicing fitness (ln) value was observed for "ACGAAGCAAUAUUACGGUGC" ?
Solution: -4.82

Problem: Would you mind telling me what self-splicing fitness (ln) value was observed for "AUGAAGCAAUAUUACGGCGU" ?
Solution: 0.47

Problem: Would you mind telling me what self-splicing fitness (ln) value was observed for "GGCUAGCAAUAUUACGACCA" ?
Solution: -1.49

Problem: Would you mind telling me what self-splicing fitness (ln) value was observed for "AGAUAGCAAUAUUACGAGCU" ?
Solution: -0.432

Problem: Would you mind telling me what self-splicing fitness (ln) value was observed for "GCUAAGCAAUAUUACGACAC" ?
Solution: -0.804

Problem: Would you mind telling me what self-splicing fitness (ln) value was observed for "AAGAAGCAAUAUUACGAUUC" ?
Solution: -1.49

Problem: Would you mind telling me what self-splicing fitness (ln) value was observed for "AGACAGCAAUAUUACGCCUG" ?
Solution: -1.88

Problem: Would you mind telling me what self-splicing fitness (ln) value was observed for "AUCAAGCAAUAUUACGGUGG" ?
Solution: -3.54

Problem: Would you mind telling me what self-splicing fitness (ln) value was observed for "GACAAGCAAUAUUACGCGUC" ?
Solution: -4.02

Problem: Would you mind telling me what self-splicing fitness (ln) value was observed for "UGCUAGCAAUAUUACGUAUG" ?
Solution: -1.1

Problem: Would you mind telling me what self-splicing fitness (ln) value was observed for "AGCCAGCAAUAUUACGUCAU" ?
Solution: -2.29

Problem: Would you mind telling me what self-splicing fitness (ln) value was observed for "GUGCAGCAAUAUUACGGACG" ?
Solution: -2.47

Problem: Would you mind telling me what self-splicing fitness (ln) value was observed for "UCGCAGCAAUAUUACGCGUU" ?
Solution: -4.2

Problem: Would you mind telling me what self-splicing fitness (ln) value was observed for "UAAUAGCAAUAUUACGACUG" ?
Solution: -0.137

Problem: Would you mind telling me what self-splicing fitness (ln) value was observed for "CCCAAGCAAUAUUACGGGCU" ?
Solution: -3.61

Problem: Would you mind telling me what self-splicing fitness (ln) value was observed for "GAUAAGCAAUAUUACGGGUU" ?
Solution: -2.18

Problem: Would you mind telling me what self-splicing fitness (ln) value was observed for "GGAAAGCAAUAUUACGGCUC" ?
Solution: -0.254

Problem: Would you mind telling me what self-splicing fitness (ln) value was observed for "GACAAGCAAUAUUACGUUAC" ?
Solution: -3.32

Problem: Would you mind telling me what self-splicing fitness (ln) value was observed for "CUCAAGCAAUAUUACGGAUA" ?
Solution: -2.72

Problem: Would you mind telling me what self-splicing fitness (ln) value was observed for "CUACAGCAAUAUUACGUACG" ?
Solution: -0.289

Problem: Would you mind telling me what self-splicing fitness (ln) value was observed for "AGAAAGCAAUAUUACGAAUA" ?
Solution: -2.51

Problem: Would you mind telling me what self-splicing fitness (ln) value was observed for "UUCCAGCAAUAUUACGUUGC" ?
Solution: -2.4

Problem: Would you mind telling me what self-splicing fitness (ln) value was observed for "AACUAGCAAUAUUACGUGUC" ?
Solution: -4.26

Problem: Would you mind telling me what self-splicing fitness (ln) value was observed for "AACAAGCAAUAUUACGAUUA" ?
Solution: -0.823

Problem: Would you mind telling me what self-splicing fitness (ln) value was observed for "UGCAAGCAAUAUUACGUGCA" ?
Solution: -3.02

Problem: Would you mind telling me what self-splicing fitness (ln) value was observed for "CCCUAGCAAUAUUACGUCUC" ?
Solution: -3.71

Problem: Would you mind telling me what self-splicing fitness (ln) value was observed for "UUGAAGCAAUAUUACGUUGU" ?
Solution: -2.87

Problem: Would you mind telling me what self-splicing fitness (ln) value was observed for "ACCUAGCAAUAUUACGGUGA" ?
Solution: -1.86

Problem: Would you mind telling me what self-splicing fitness (ln) value was observed for "AGUUAGCAAUAUUACGUAGC" ?
Solution: -3.86

Problem: Would you mind telling me what self-splicing fitness (ln) value was observed for "GCUAAGCAAUAUUACGACAA" ?
Solution: -1.43

Problem: Would you mind telling me what self-splicing fitness (ln) value was observed for "UGCCAGCAAUAUUACGAUCG" ?
Solution: -0.0468

Problem: Would you mind telling me what self-splicing fitness (ln) value was observed for "UUACAGCAAUAUUACGGGCA" ?
Solution: -1.01

Problem: Would you mind telling me what self-splicing fitness (ln) value was observed for "CGCAAGCAAUAUUACGUGUU" ?
Solution: -3.48

Problem: Would you mind telling me what self-splicing fitness (ln) value was observed for "ACCAAGCAAUAUUACGUGUC" ?
Solution: -2.94

Problem: Would you mind telling me what self-splicing fitness (ln) value was observed for "CAAUAGCAAUAUUACGACAC" ?
Solution: -3.61

Problem: Would you mind telling me what self-splicing fitness (ln) value was observed for "AUCAAGCAAUAUUACGCUAG" ?
Solution: -2.76

Problem: Would you mind telling me what self-splicing fitness (ln) value was observed for "AGUAAGCAAUAUUACGUUAC" ?
Solution: -3.26

Problem: Would you mind telling me what self-splicing fitness (ln) value was observed for "AUCAAGCAAUAUUACGCCUG" ?
Solution: -1.61
